// provenance: patent US20100184094A1

For each entry below, report its Ki value.

Input: Lab note: need Ki for COC(=O)[C@H]1O[C@@H](Oc2ccc([C@@H]3[C@@H](CC[C@H](O)c4ccc(F)cc4)C(=O)N3c3ccc(C#CCNS(C)(=O)=O)cc3)cc2)[C@H](O)[C@@H](O)[C@@H]1O on rat NPC1L1 (Rattus norvegicus, UniProt Q6T3U3), anyone have it?
Output: 4.07 nM

Input: Lab note: need Ki for O=C(O)[C@H]1O[C@@H](Oc2ccc([C@@H]3[C@@H](CC[C@H](O)c4ccc(F)cc4)C(=O)N3c3ccc(F)cc3)cc2)[C@H](O)[C@@H](O)[C@@H]1O [EZE-gluc, ezetimibe glucuronide] on rat NPC1L1 (Rattus norvegicus, UniProt Q6T3U3), anyone have it?
Output: 95.1 nM

Input: Lab note: need Ki for O=C1[C@H](CC[C@H](O)c2ccc(F)cc2)[C@@H](c2ccc(O)cc2)N1c1ccc(F)cc1 on rat NPC1L1 (Rattus norvegicus, UniProt Q6T3U3), anyone have it?
Output: 209 nM

Input: Lab note: need Ki for CS(=O)(=O)NCCCc1ccc(N2C(=O)[C@H](CC[C@H](O)c3ccc(F)cc3)[C@H]2c2ccc(O[C@@H]3O[C@H](C(=O)O)[C@@H](O)[C@H](O)[C@H]3O)cc2)cc1 on rat NPC1L1 (Rattus norvegicus, UniProt Q6T3U3), anyone have it?
Output: 2.35 nM

----------
For each entry below, report its IC50 value.
- assayed target: dog NPC1L1 (Canis lupus familiaris, UniProt A0A8I3RZG1)
- Sequence (A0A8I3RZG1 entry or part of it): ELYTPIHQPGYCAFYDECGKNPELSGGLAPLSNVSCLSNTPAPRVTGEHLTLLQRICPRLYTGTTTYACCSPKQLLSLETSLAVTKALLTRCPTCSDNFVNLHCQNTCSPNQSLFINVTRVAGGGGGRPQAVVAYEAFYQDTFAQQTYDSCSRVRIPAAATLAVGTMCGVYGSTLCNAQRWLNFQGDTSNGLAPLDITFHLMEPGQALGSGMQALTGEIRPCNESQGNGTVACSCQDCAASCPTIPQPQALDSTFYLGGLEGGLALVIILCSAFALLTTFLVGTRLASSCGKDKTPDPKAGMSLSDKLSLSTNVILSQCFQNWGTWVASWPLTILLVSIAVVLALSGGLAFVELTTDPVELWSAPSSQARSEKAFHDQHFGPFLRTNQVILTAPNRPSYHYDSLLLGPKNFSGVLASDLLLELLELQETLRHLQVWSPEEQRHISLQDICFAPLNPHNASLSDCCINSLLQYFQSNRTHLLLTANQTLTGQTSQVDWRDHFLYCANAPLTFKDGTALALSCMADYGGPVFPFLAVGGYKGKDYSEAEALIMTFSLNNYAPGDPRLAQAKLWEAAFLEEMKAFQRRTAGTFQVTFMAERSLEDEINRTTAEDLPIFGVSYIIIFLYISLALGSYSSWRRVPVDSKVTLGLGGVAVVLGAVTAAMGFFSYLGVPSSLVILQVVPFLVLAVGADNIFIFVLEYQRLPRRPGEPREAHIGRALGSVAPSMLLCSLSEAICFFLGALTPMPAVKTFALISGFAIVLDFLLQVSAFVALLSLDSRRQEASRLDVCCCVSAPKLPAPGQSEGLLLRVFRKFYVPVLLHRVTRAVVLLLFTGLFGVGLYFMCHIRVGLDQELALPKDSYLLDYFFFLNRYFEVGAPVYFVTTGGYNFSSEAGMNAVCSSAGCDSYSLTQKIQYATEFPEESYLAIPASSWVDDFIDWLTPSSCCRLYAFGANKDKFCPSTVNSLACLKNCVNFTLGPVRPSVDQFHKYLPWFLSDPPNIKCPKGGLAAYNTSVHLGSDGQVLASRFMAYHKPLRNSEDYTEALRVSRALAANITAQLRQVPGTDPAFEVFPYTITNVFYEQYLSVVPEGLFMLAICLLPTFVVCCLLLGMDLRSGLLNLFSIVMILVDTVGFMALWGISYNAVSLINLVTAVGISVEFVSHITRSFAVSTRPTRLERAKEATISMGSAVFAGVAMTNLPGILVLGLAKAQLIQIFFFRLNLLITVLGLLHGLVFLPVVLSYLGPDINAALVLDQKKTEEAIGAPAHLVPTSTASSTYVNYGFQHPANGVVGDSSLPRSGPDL
- assay explanation: [3H]AS binding to dog NPC1L1 transiently expressed in TsA201 cells
- condition context: 4.65 nM [3H]AS, 4 h, 37° C.; read-out: IC50 inhibition of [3H]AS binding
// return the numeric value with its unit appended

Input: Lab note: need IC50 for CS(=O)(=O)NCCCc1ccc(N2C(=O)[C@H](CC[C@H](O)c3ccc(F)cc3)[C@H]2c2ccc(O[C@@H]3O[C@H](C(=O)O)[C@@H](O)[C@H](O)[C@H]3O)cc2)cc1 [AS] on dog NPC1L1 (Canis lupus familiaris, UniProt A0A8I3RZG1), anyone have it?
Output: 3.79 nM

Input: Lab note: need IC50 for COC(=O)[C@H]1O[C@@H](Oc2ccc([C@@H]3[C@@H](CC[C@H](O)c4ccc(F)cc4)C(=O)N3c3ccc(C#CCNS(C)(=O)=O)cc3)cc2)[C@H](O)[C@@H](O)[C@@H]1O [PS] on dog NPC1L1 (Canis lupus familiaris, UniProt A0A8I3RZG1), anyone have it?
Output: 3.73 nM

Input: Lab note: need IC50 for O=C(O)[C@H]1O[C@@H](Oc2ccc([C@@H]3[C@@H](CC[C@H](O)c4ccc(F)cc4)C(=O)N3c3ccc(F)cc3)cc2)[C@H](O)[C@@H](O)[C@@H]1O [EZE-gluc, ezetimibe glucuronide] on dog NPC1L1 (Canis lupus familiaris, UniProt A0A8I3RZG1), anyone have it?
Output: 27 nM

Input: Lab note: need IC50 for O=C1[C@H](CC[C@H](O)c2ccc(F)cc2)[C@@H](c2ccc(O)cc2)N1c1ccc(F)cc1 [EZE, Ezetimibe] on dog NPC1L1 (Canis lupus familiaris, UniProt A0A8I3RZG1), anyone have it?
Output: 111 nM
